# assay-explanation: qHTS for Inhibitors of human tyrosyl-DNA phosphodiesterase 1 (TDP1): qHTS in cells in presence of CPT; note: nearly all actives have a fitted effect of over 55% in size
# cond: chicken DT40 Tdp1-/-;hTDP1 cells + 20 nM CPT, ATP luminescence, 48 h; series mostly up to 46.2 µM
The campaign covered roughly 420,000 compounds. About 50,000 (12%) were called active. About 26% were inconclusive and are not listed. Calls come from the whole dose curve; as a rule, active = well fitted inhibition curve with a large enough effect; inconclusive = small, poorly fitted or top-dose-only effect; inactive = flat fitted curve, though single readings scatter. This is one part of a sample in which actives are shown more often than they occur.
Give one outcome, nothing more. List: 1.0 = active, 0.0 = inactive

> print(dat)
                                 molecule  answer.label
1  CN1CCN(C(=O)c2ccc(-c3ccc(Br)cc3)o2)CC1           0.0

Which outcome did this test record for the molecule CCOC(=O)C1=C(CSc2nccn2C)NC(=O)NC1c1ccc(OC)cc1 (centres undefined) ?
0.0

Now consider COc1ccccc1C1C(C(N)=O)=C(C)Nc2nc(CCCO)nn21 (centres undefined) .
0.0

---

# assay-explanation: qHTS for Inhibitors of human tyrosyl-DNA phosphodiesterase 1 (TDP1): qHTS in cells in presence of CPT; note: nearly all actives have a fitted effect of over 55% in size
# cond: chicken DT40 Tdp1-/-;hTDP1 cells + 20 nM CPT, ATP luminescence, 48 h; series mostly up to 46.2 µM
The whole screen tested about 420,000 compounds, of which about 50,000 (12%) were called active. Roughly 26% stayed inconclusive and do not appear here. Calls come from the whole dose curve; as a rule, active = well fitted inhibition curve with a large enough effect; inconclusive = small, poorly fitted or top-dose-only effect; inactive = flat fitted curve, though single readings scatter. Only a selection was taken, and actives are over-represented in it overall.
Would you mind answering with one of these outcomes? active, inactive

Here's what some known entries look like.
> print(dat)
                                   compound  answer.label
1  COc1ccc(-n2cc(CNC3CCOCC3)c(-c3cccc(F)c3)n2)cc1        active
2  O=C(OCC(=O)c1cccs1)c1ccc([N+](=O)[O-])o1      inactive
3  Cc1ccc(NC(=O)NCC(c2cccnc2)N2CCOCC2)cc1 (configuration not stated)      inactive
4      COc1ccc(C)cc1NC(=O)CSc1cccc[n+]1[O-]      inactive
5  CCOc1ccc(OCc2ccc(C(=O)N(C)c3ccccc3)o2)cc1      inactive
6               O=c1[nH]snc1-c1c(Cl)cccc1Cl      inactive
7  COc1ccccc1-c1nn(Cc2ccccc2)cc1C(=O)N1CCN(c2ncccn2)CC1        active
8  CN(C(=O)CN1CCN(c2cc(-c3ccc(OCc4ccccc4)cc3)ncn2)CC1)c1ccccc1        active

Which result was noted for this compound in the test: CCCCOc1ccc(N(CC(=O)NC(C)C)C(=O)CCC(=O)Nc2ccccn2)cc1
inactive

Now the compound N/C(=N\OC(=O)CC1CCCCC1)c1ccccc1
inactive

---

# assay-explanation: qHTS for Inhibitors of human tyrosyl-DNA phosphodiesterase 1 (TDP1): qHTS in cells in presence of CPT; note: nearly all actives have a fitted effect of over 55% in size
# cond: chicken DT40 Tdp1-/-;hTDP1 cells + 20 nM CPT, ATP luminescence, 48 h; series mostly up to 46.2 µM
Among all 420,000 compounds or so, about 50,000 (12%) were called active. Roughly 26% stayed inconclusive and do not appear here. The call rests on the fitted dose curve; in most records, active means well fitted inhibition curve with a large enough effect; inconclusive means small, poorly fitted or top-dose-only effect; inactive means flat fitted curve, though single readings scatter. The sample as a whole holds a higher share of actives than the screen did.
Output constraint: value belongs to label 1 for active, label 0 for inactive

Solved entries:
> print(dat)
                                   compound  answer.label
1               O=C(Cc1ccccc1)NCc1ccc(F)cc1       label 0
2  COc1ccc(-c2nc(CS(=O)CC(=O)N3CCc4ccccc4C3)c(C)o2)cc1 (stereo unspecified)       label 1
3  O=C(CN1CCN(C(=O)c2cccc(F)c2)CC1)Nc1ccccc1F       label 0

Assay outcome for O=C(COc1ccccc1)NCc1ccc2c(c1)CCN2C(=O)c1ccc(F)cc1 : what was it?
label 1

What do you get for Cc1ccc(C(=O)Nc2ccc(C(=O)O)cc2)cc1S(=O)(=O)Nc1ccccc1 ?
label 0

Same lookup for COc1ccc(-c2csc(NC(=O)c3ccc(N4C(=O)CCC4=O)cc3)n2)cc1OC , please.
label 0

What about Cc1ccc(C(=O)N2CCc3cc(CNC(=O)c4ccc(Br)cc4)ccc32)cc1 ?
label 0

Same question for O=C(COc1ccccc1)N1CCc2ccccc2C1 please.
label 0

---

# assay-explanation: qHTS for Inhibitors of human tyrosyl-DNA phosphodiesterase 1 (TDP1): qHTS in cells in presence of CPT; note: nearly all actives have a fitted effect of over 55% in size
# cond: chicken DT40 Tdp1-/-;hTDP1 cells + 20 nM CPT, ATP luminescence, 48 h; series mostly up to 46.2 µM
The whole screen tested about 420,000 compounds, of which about 50,000 (12%) were called active. About 26% were inconclusive and are not listed. Calls come from the whole dose curve; as a rule, active = well fitted inhibition curve with a large enough effect; inconclusive = small, poorly fitted or top-dose-only effect; inactive = flat fitted curve, though single readings scatter. Many of the other results were omitted from the sample, so actives are more common in it than they were.
The reply should name one outcome from Yes (active), No (inactive)

Past entries and their recorded results:
> print(dat)
                                   compound  answer.label
1  CC1=CC(C)(C)Nc2ccc(OC(=O)CN3C(=O)C4CCCCC4C3=O)cc21 (stereo unspecified)           Yes
2  Cc1cc(C)cc(NC(=O)C2CCN(c3nc(C)cc(C)n3)CC2)c1            No
3  CCCOc1cc(C)c(S(=O)(=O)n2nnc3ccccc32)cc1C            No
4      Oc1ccc(N2CCN(C(=S)NCc3ccccc3)CC2)cc1           Yes
5  Cc1ccc(C(C)C)c(OCCSc2nc3ccccc3n2CC(=O)O)c1            No

Test call for this compound, please: O=C(CSc1ccccc1F)NC1CCS(=O)(=O)C1 (stereo unspecified)
No

One more compound: CCn1c(SCC(=O)N/N=C/c2ccccc2OCC(=O)O)nnc1-c1ccc(C(C)(C)C)cc1
No

Next: COc1ccc(OCCCn2c(C3CC(=O)N(c4ccc(F)cc4)C3)nc3ccccc32)cc1 (stereo unspecified)
Yes

---

# assay-explanation: qHTS for Inhibitors of human tyrosyl-DNA phosphodiesterase 1 (TDP1): qHTS in cells in presence of CPT; note: nearly all actives have a fitted effect of over 55% in size
# cond: chicken DT40 Tdp1-/-;hTDP1 cells + 20 nM CPT, ATP luminescence, 48 h; series mostly up to 46.2 µM
# Protocol: Human tyrosyl-DNA phosphodiesterase 1 (TDP1) is a novel repair gene, and we propose to use it as a new target for anticancer drug development. […] For the primary screen, Tdp1-/-;hTDP1 cells will be exposed to small molecules in the presence or absence of CPT, and their growth kinetics will be evaluated after 48 hours by measuring ATP activity. […] The hit compounds will then be evaluated in the presence or absence of CPT using Tdp1-/- cells. […]
The campaign covered roughly 420,000 compounds. About 50,000 (12%) were called active. Not shown: some 26% with an inconclusive outcome. Calls follow the shape of the dose curve; as a rule, active = well fitted inhibition curve with a large enough effect; inconclusive = small, poorly fitted or top-dose-only effect; inactive = flat fitted curve, though single readings scatter. The sample holds actives, similar compounds and a random draw of the others, so the mix is not that of the screen.
Mark one answer only. Choices: active, inactive

compound	answer-label
CN1CCN(S(=O)(=O)c2cccc(C(=O)Nc3sccc3C#N)c2)CC1	inactive
C/C(Cn1nnc2ccccc21)=N\OC(=O)c1cc(F)c(F)cc1Cl	inactive
C=CCOc1cccc(C2C(C(=O)c3ccc(C)o3)=C(O)C(=O)N2CCCn2ccnc2)c1 (stereo unspecified)	inactive
CC(C)(C)NC(=O)C(=O)NCc1ccncc1	inactive
COc1ccc(C(=O)N2CCCN(C)CC2)c(OC)c1	inactive

Query: recorded result category for COc1cc(OC)c(NC(=O)c2cnc(N3CCCC3)nc2C)cc1Cl in this test
inactive

Try CC1(C)O[C@H]2CC(=O)OCC23[C@H]2CC[C@@]4(C)[C@H](c5ccoc5)OC(=O)[C@H]5O[C@]54[C@]2(C)C(=O)C[C@@H]13 (stereo partly specified) next.
inactive

Another: Cc1ccc(C)c2sc(NC(=O)c3ccc(S(=O)(=O)N4CCCC4)cc3)nc12
active

// query: CCc1nc(-c2cc(S(=O)(=O)N3CCN(c4ccc(OC)cc4)CC3)ccc2OC)no1
inactive

Lookup O=C(N/N=C/c1ccccn1)c1ccc(S(=O)(=O)N2CCCCCC2)cc1
inactive

Check CC(=NNC(N)=O)C1CC2CCC1CC2 (stereo unspecified) too.
inactive

---

# assay-explanation: qHTS for Inhibitors of human tyrosyl-DNA phosphodiesterase 1 (TDP1): qHTS in cells in presence of CPT; note: nearly all actives have a fitted effect of over 55% in size
# cond: chicken DT40 Tdp1-/-;hTDP1 cells + 20 nM CPT, ATP luminescence, 48 h; series mostly up to 46.2 µM
About 50,000 (12%) of roughly 420,000 compounds were called active. Roughly 26% stayed inconclusive and do not appear here. The call rests on the fitted dose curve; in most records, active means well fitted inhibition curve with a large enough effect; inconclusive means small, poorly fitted or top-dose-only effect; inactive means flat fitted curve, though single readings scatter. The entries come from a sample that favours actives as a whole.
Permitted responses: y (active), n (inactive)

Worked examples follow.
> print(dat)
                                   compound  answer.label
1         O=C(Nc1ccccc1)Nc1ccc(C(F)(F)F)cn1             n
2  CCc1ccccc1NC(=O)c1ccc2c(c1)CCN2S(C)(=O)=O             n
3  Cc1ccc(-c2nn(-c3ccccc3)cc2C(=O)NC2CCC(O)CC2)cc1 (stereo not given)             n

Which outcome did this test record for the compound C[C@H](NC(=O)c1nc[nH]c1C(=O)NCC(=O)OC(C)(C)C)c1ccccc1 ?
n

Also O=C(CSc1n[nH]c(-c2cccs2)n1)N1CCCCC1 , if possible.
n

Repeat for the following compound: COc1cc(C(C(=O)NC2CCCC2)N(Cc2ccccc2)C(=O)c2snc(C(N)=O)c2N)ccc1O (stereo not given)
n
